RECORDED_ENDPOINT: IC50 (nM)
Provide the reading as a plain figure in nM.

Look up and report IC50, with human Gal-1 (hGal-1) (Homo sapiens) as system, for "CO[C@@H]1[C@@H](n2cc(-c3cc(F)c(Cl)c(F)c3)nn2)[C@@H](O)[C@@H](CO)O[C@H]1C(=O)N(c1cc(Cl)cc(Cl)c1)[C@@H]1CN(C(C)=O)C[C@H]1O"
Sequence (P09382 2-135 limits assumed): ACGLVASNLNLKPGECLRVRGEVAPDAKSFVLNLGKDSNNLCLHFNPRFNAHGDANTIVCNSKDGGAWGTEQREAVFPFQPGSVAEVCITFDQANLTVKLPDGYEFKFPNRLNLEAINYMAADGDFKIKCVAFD
1780

Look up and report IC50, with human Gal-1 (hGal-1) (Homo sapiens) as system, for "CO[C@@H]1[C@@H](n2cc(-c3cc(F)c(F)c(F)c3)nn2)[C@@H](O)[C@@H](CO)O[C@H]1C(=O)N(c1cc(Br)cc(Br)c1)[C@H]1CN(C(C)=O)C[C@@H]1O"
1210

Look up and report IC50, with human Gal-1 (hGal-1) (Homo sapiens) as system, for "CO[C@@H]1[C@@H](n2cc(-c3ccc(Cl)c(Cl)c3)nn2)[C@@H](O)[C@@H](CO)O[C@H]1C(=O)N(c1cc(Cl)cc(Cl)c1)[C@@H]1CN(C(C)=O)C[C@H]1O"
657

Look up and report IC50, with human Gal-1 (hGal-1) (Homo sapiens) as system, for "CO[C@@H]1[C@@H](n2cc(-c3cc(F)c(C)c(F)c3)nn2)[C@@H](O)[C@@H](CO)O[C@H]1C(=O)N(c1cc(Cl)cc(Cl)c1)[C@@H]1CN(C(C)=O)C[C@H]1O"
13400

Look up and report IC50, with human Gal-1 (hGal-1) (Homo sapiens) as system, for "CO[C@@H]1[C@@H](n2cc(-c3cc(F)c(Cl)c(F)c3)nn2)[C@@H](O)[C@@H](CO)O[C@H]1C(=O)N(c1cc(Br)cc(Br)c1)[C@@H]1CN(C(C)=O)C[C@H]1O"
1860

Look up and report IC50, with human Gal-1 (hGal-1) (Homo sapiens) as system, for "CO[C@@H]1[C@@H](n2cc(-c3cc(F)c(C)c(F)c3)nn2)[C@@H](O)[C@@H](CO)O[C@H]1C(=O)N(c1cc(C)cc(Br)c1)[C@H]1CNC[C@@H]1O"
1800
